TEST_SYSTEM: Beta-secretase 1 (Homo sapiens)
MEASUREMENT_PROTOCOL: Inhibition of soluble APPbeta N-terminal fragment production in HEK293T cells
Format: functional, cell-based, HEK-293T
pIC50: −log10 of the molar value.
VALUE_KIND: pIC50

Answered cases to consult:
INPUT: Record request: pIC50 value, item "CC(C)CNC(=O)[C@H](CCS(C)(=O)=O)NC[C@H](Cc1ccccc1)NC(=O)c1cc(C(=O)N[C@H](C)c2ccc(F)cc2)cc(N(C)S(C)(=O)=O)c1"
OUTPUT: 4.76

INPUT: Record request: pIC50 value, item CC(C)CNC(=O)[C@H](C)NC[C@H](Cc1ccccc1)NC(=O)c1cc(CCC2C[C@@H]2C)cc(N(C)S(C)(=O)=O)c1 (stereo partly specified)
OUTPUT: 7.64

(I) CC(C)CNC(=O)CNC[C@H](Cc1ccccc1)NC(=O)c1cc(C(=O)N[C@H](C)c2ccc(F)cc2)cc(N(C)S(C)(=O)=O)c1
(II) CC[C@H](NC[C@H](Cc1ccccc1)NC(=O)c1cc(C(=O)N[C@H](C)c2ccc(F)cc2)cc(N(C)S(C)(=O)=O)c1)C(=O)NCC(C)C
(III) C[C@H](NC[C@H](Cc1ccccc1)NC(=O)c1cc(C(=O)N[C@H](C)c2ccc(F)cc2)cc(N(C)S(C)(=O)=O)c1)C(=O)NCc1ccccc1
INPUT: Task for the reader: rank each entry by its pIC50, from the minimum upward. Output spec: labels arranged per the requested ranking.
OUTPUT: I, III, II
(I: 5.43, III: 6.14, II: 7.70)

###

TEST_SYSTEM: Beta-secretase 1 (Homo sapiens, UniProt P56817)
Sequence (P56817 whole entry, the tested form may be a part): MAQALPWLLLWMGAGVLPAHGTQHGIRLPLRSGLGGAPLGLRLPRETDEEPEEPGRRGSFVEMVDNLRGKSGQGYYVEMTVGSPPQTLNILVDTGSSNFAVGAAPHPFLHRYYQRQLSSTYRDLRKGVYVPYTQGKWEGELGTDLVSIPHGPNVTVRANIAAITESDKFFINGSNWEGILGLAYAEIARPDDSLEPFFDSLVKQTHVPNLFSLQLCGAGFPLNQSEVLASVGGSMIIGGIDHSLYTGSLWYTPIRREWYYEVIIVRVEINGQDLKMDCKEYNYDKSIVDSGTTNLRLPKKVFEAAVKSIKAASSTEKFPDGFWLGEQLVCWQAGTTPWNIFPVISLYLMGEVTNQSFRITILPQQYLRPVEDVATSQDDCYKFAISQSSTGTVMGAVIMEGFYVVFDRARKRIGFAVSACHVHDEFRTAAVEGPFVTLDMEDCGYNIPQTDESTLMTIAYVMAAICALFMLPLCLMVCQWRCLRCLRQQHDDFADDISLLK
MEASUREMENT_PROTOCOL: Inhibition of soluble APPbeta N-terminal fragment production in HEK293T cells
Type: functional, cell-based, HEK-293T
VALUE_KIND: IC50 (nM)

Answered cases to consult:
INPUT: Record request: IC50 value, item "CC(C)CNC(=O)[C@H](C)NC[C@H](Cc1ccccc1)NC(=O)c1cc(C(=O)N[C@H](C)c2ccc(F)cc2)cc(N(C)S(C)(=O)=O)c1"
OUTPUT: 22

INPUT: Record request: IC50 value, item "C[C@H](NC[C@H](Cc1ccccc1)NC(=O)c1cc(C(=O)N[C@H](C)c2ccc(F)cc2)cc(N(C)S(C)(=O)=O)c1)C(=O)NC1CC1"
OUTPUT: 133

INPUT: Record request: IC50 value, item "CCC[C@H](NC[C@H](Cc1ccccc1)NC(=O)c1cc(C(=O)N[C@H](C)c2ccc(F)cc2)cc(N(C)S(C)(=O)=O)c1)C(=O)NCC(C)C"
OUTPUT: 17

(A) CC(C)CNC(=O)[C@H](CCO)NC[C@H](Cc1ccccc1)NC(=O)c1cc(C(=O)N[C@H](C)c2ccc(F)cc2)cc(N(C)S(C)(=O)=O)c1
(B) CCNC(=O)[C@H](C)NC[C@H](Cc1ccccc1)NC(=O)c1cc(C(=O)N[C@H](C)c2ccc(F)cc2)cc(N(C)S(C)(=O)=O)c1
INPUT: // pick min by IC50: A , B Could you answer with the label of the item you picked?
OUTPUT: B
(B: 242 nM, A: 751 nM)
